assay: Solubility of compound by CLND assay; type: physicochemical
solubility kinetic by entry:

Study these solved cases before continuing.
| CHEMICAL STRING | READOUT VALUE |
| --- | --- |
| CC(=O)Nc1ccccc1OCc1ccccc1 | ≥ 113 µg/mL |
| CNC(=O)c1ccc(O[C@@H](C)c2ccccn2)c(-c2cn(C)nn2)c1 | ≥ 138 µg/mL |
| CCNC(=O)c1ccc(OCC2CCOCC2)c(-c2cn(C)nn2)c1 | ≥ 208 µg/mL |
| CCNC(=O)c1cc(Cc2ccccc2)nc(-c2cn(C)nn2)c1 | ≥ 157 µg/mL |
| Cc1nc(-c2ccccc2OCc2ccccc2)n[nH]1 | ≥ 70 µg/mL |

Moving on to another compound below.
For the compound Cn1cc(-c2cc(C(=O)NCCCC3CCNCC3)cc(Cc3ccccc3)n2)nn1 , report solubility kinetic.
≥ 134 µg/mL

---

species on record: Homo sapiens; assay: Selectivity index, ratio of pIC50 of BRD4 BD1 (unknown origin) to pIC50 of BRD4 BD2 (unknown origin)
Below, each entry is listed alongside its reported Ratio pIC50.

Identify measured Ratio pIC50 corresponding to Cc1nc(-c2ccccc2OCc2ccccc2)n[nH]1
> 6

---

assay: Permeability of compound; format: ADME; conditions: not told; read-out: permeability
Below, each entry is listed alongside its reported Papp.

Some solved entries appear below for comparison.
| CHEMICAL STRING | Papp |
| --- | --- |
| C[C@H](Oc1ccc(C(=O)NCC[C@H]2CNCCO2)cc1-c1cn(C)nn1)c1ccccn1 | < 0.3 ×10⁻⁶ cm/s |
| Cn1cc(-c2cc(C(=O)NCCCC3CCNCC3)cc(Cc3ccccc3)n2)nn1 | < 0.3 ×10⁻⁶ cm/s |
| C[C@H](Oc1ccc(C(=O)NCC2CCOCC2)cc1-c1cn(C)nn1)c1ccccn1 | 5.5 ×10⁻⁶ cm/s |

Then there is this molecule:
Please list Papp recorded for the molecule C[C@H](Oc1ccc(C(=O)NCC[C@@H]2CNCCO2)cc1-c1cn(C)nn1)c1ccccn1
< 0.3 ×10⁻⁶ cm/s

---

species on record: Homo sapiens; assay: Selectivity index, ratio of pIC50 of BRD4 BD1 (unknown origin) to pIC50 of BRD4 BD2 (unknown origin)
# Ratio pIC50 listing for each entry below

| CHEMICAL STRING | Ratio pIC50 |
| --- | --- |
| CCNC(=O)c1cc(Cc2ccc(OC)cc2)nc(-c2cn(C)nn2)c1 | > 65 |
| CCNC(=O)c1ccc(OCc2ncccn2)c(-c2cn(C)nn2)c1 | > 30 |

Read off the recorded Ratio pIC50 for Cc1nnc(-c2ccccc2OCc2ccccc2)o1
> 4
